study-system: Human recombinant PDE2A (hPDE2A) (Homo sapiens)
Construct: His tag (inferred from metal chelate purification); made in house; host or cells: Sf9 insect cells (baculovirus)
Sequence (O00408 whole entry): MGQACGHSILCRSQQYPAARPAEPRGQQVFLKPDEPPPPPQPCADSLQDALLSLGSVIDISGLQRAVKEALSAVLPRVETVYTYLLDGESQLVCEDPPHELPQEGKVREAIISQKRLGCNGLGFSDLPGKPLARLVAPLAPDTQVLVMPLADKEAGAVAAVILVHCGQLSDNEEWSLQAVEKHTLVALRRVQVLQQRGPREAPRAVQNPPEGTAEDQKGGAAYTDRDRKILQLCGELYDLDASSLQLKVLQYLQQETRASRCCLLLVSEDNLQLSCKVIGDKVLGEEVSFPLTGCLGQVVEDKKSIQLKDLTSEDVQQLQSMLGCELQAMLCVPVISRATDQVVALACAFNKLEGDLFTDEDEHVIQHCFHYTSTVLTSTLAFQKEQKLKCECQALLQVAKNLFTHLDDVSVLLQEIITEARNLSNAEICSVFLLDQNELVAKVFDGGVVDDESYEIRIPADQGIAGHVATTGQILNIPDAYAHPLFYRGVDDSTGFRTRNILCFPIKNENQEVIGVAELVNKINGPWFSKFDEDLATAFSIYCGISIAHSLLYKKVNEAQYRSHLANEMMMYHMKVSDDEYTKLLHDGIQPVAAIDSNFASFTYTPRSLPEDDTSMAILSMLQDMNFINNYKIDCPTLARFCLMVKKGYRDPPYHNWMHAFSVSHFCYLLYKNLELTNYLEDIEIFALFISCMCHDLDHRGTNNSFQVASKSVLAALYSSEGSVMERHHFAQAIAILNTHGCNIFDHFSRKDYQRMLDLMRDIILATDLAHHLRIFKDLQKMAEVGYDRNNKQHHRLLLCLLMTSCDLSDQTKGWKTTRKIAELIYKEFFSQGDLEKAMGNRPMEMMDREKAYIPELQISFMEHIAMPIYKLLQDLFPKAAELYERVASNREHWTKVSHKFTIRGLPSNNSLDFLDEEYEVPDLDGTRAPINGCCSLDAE
assay-protocol: In vitro assay PDE2A (SPA, 3H-cGMP hydrolysis)
Assay type: biochemical
condition-label: read-out: hPDE2A Emax

molecule | study-system | units | Emax
Cc1cc(C(=O)N2C3CCC2[C@@H](c2cc(C(F)F)nc4ncnn24)CC3)cc(C2CC2)n1 (some centres unmarked) [Compound 28] | Human recombinant PDE2A (hPDE2A) (Homo sapiens) | % | 101
COc1ncc(C)cc1C(=O)N1CC[C@@H](C)[C@H](c2cc(C(F)F)nc3ncnn23)C1 [Compound 272] | Human recombinant PDE2A (hPDE2A) (Homo sapiens) | % | 102
CC(C)n1ccc2cc(C(=O)N3[C@H]4CC[C@H](c5cc(C(F)F)nc6ncnn56)[C@@H]3CC4)ccc21 [Compound 355] | Human recombinant PDE2A (hPDE2A) (Homo sapiens) | % | 99
Cn1ccc2cc(C(=O)N3[C@H]4CC[C@H](c5cc(C(F)F)nc6ncnn56)[C@@H]3CC4)cc(F)c21 [Compound 374] | Human recombinant PDE2A (hPDE2A) (Homo sapiens) | % | 100
COc1cc(C(=O)N2CC[C@@H](C)[C@H](c3cc(C(F)F)nc4ncnn34)C2)ccc1F [Compound 195] | Human recombinant PDE2A (hPDE2A) (Homo sapiens) | % | 98
C[C@@H]1CCN(C(=O)c2ccc(F)cn2)C[C@H]1c1cc(C(F)F)nc2ncnn12 [Compound 251] | Human recombinant PDE2A (hPDE2A) (Homo sapiens) | % | 98
C[C@@H]1CCN(C(=O)c2cc(OC(F)F)cc(C3CC3)c2)C[C@H]1c1cc(C(F)F)nc2ncnn12 [Compound 91] | Human recombinant PDE2A (hPDE2A) (Homo sapiens) | % | 100
COc1c(C(=O)N2CC[C@@H](C)[C@H](c3cc(C(F)F)nc4ncnn34)C2)cccc1C(F)(F)F [Compound 247] | Human recombinant PDE2A (hPDE2A) (Homo sapiens) | % | 98
O=C(c1ccc2cnccc2c1)N1[C@H]2CC[C@H](c3cc(C(F)F)nc4ncnn34)[C@@H]1CC2 [Compound 314] | Human recombinant PDE2A (hPDE2A) (Homo sapiens) | % | 100
C[C@@H]1CCN(C(=O)c2ncc[nH]2)C[C@H]1c1cc(C(F)F)nc2ncnn12 [Compound 240] | Human recombinant PDE2A (hPDE2A) (Homo sapiens) | % | 90
C[C@@H]1CCN(C(=O)c2ccc3c(ccn3C)c2)C[C@H]1c1cc(C(F)F)nc2ncnn12 [Compound 327] | Human recombinant PDE2A (hPDE2A) (Homo sapiens) | % | 101
Cc1ccc2cc(C(=O)N3CC[C@@H](C)[C@H](c4cc(C(F)F)nc5ncnn45)C3)c(C)nc2c1 [Compound 60] | Human recombinant PDE2A (hPDE2A) (Homo sapiens) | % | 100
C[C@@H]1CCN(C(=O)c2ccc(F)c(F)c2F)C[C@H]1c1cc(C(F)F)nc2ncnn12 [Compound 245] | Human recombinant PDE2A (hPDE2A) (Homo sapiens) | % | 99
Cc1cc(C(=O)N2CC[C@@H](C)[C@H](c3cc(C(F)F)nc4ncnn34)C2)c(F)c(C(F)(F)F)n1 [Compound 396] | Human recombinant PDE2A (hPDE2A) (Homo sapiens) | % | 98
Cc1cc(C(=O)N2CC[C@@H](C)[C@H](c3cc(C(F)F)nc4ncnn34)C2)cc(C)c1C#N [Compound 78] | Human recombinant PDE2A (hPDE2A) (Homo sapiens) | % | 102
O=C(c1ccc2cccn2c1)N1[C@H]2CC[C@H](c3cc(C(F)F)nc4ncnn34)[C@@H]1CC2 [Compound 291] | Human recombinant PDE2A (hPDE2A) (Homo sapiens) | % | 101
Cc1cc(C(=O)N2[C@H]3CC[C@H](c4cc(C(F)F)nc5ncnn45)[C@@H]2CC3)cc(C)c1C#N [Compound 299] | Human recombinant PDE2A (hPDE2A) (Homo sapiens) | % | 99
